Target: human PF4 (Homo sapiens, UniProt P02776)
Construct: PF4 is a 70 amino acid, lysine-rich 7.8 kDa platelet-specific protein; made in house; host or cells: Escherichia coli BL21DE3 pLysS (pT7-7) and/or Drosophila S2 cells
Sequence (P02776 32-101): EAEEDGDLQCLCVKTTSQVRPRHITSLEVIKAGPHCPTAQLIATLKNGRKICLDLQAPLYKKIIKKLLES
Test: Inhibition of PF4 tetramer formation (BS3 cross-linking, SDS-PAGE)
Assay type: biochemical
Settings: 10 μM inhibitor (column A); read-out: % inhibition of PF4 tetramer formation at single concentration of inhibitor
OBSERVATION TYPE: inhibition at 10 µM

Previously resolved entries follow.
MOLECULE: COC(=O)c1ccc(NC(=O)C2C(=O)c3ccc(S(=O)(=O)c4ccc5c(c4)C(=O)C(C(=O)Nc4ccc(C(=O)OC)cc4)C5=O)cc3C2=O)cc1 (stereo not drawn) [Example 98]
EXPERIMENTAL TARGET: human PF4 (Homo sapiens, UniProt P02776)
REPORTED VALUE: 100%
//
MOLECULE: O=C1c2ccc(S(=O)(=O)c3ccc4c(c3)C(=O)C(C(=O)C3CCN(C(=O)OCc5ccccc5)C3)C4=O)cc2C(=O)C1C(=O)C1CCN(C(=O)OCc2ccccc2)C1 (stereo not drawn) [Example 160]
EXPERIMENTAL TARGET: human PF4 (Homo sapiens, UniProt P02776)
REPORTED VALUE: 88%

Now for a further molecule.
Q: Please report the recorded inhibition at 10 µM for CC(C)(C)OC(=O)N1CCC[C@H]1C(=O)C1C(=O)c2ccc(-c3ccc4c(c3)C(=O)C(C(=O)[C@@H]3CCCN3C(=O)OC(C)(C)C)C4=O)cc2C1=O (stereo partly drawn) [Example 209] .
Ans: 96%

###

Target: human PF4 (Homo sapiens, UniProt P02776)
Construct: PF4 is a 70 amino acid, lysine-rich 7.8 kDa platelet-specific protein; made in house; host or cells: Escherichia coli BL21DE3 pLysS (pT7-7) and/or Drosophila S2 cells
Assay: Inhibition of PF4 tetramer formation (BS3 cross-linking, SDS-PAGE)
Type: biochemical
Conditions: 10 μM inhibitor (column A); read-out: % inhibition of PF4 tetramer formation at single concentration of inhibitor
OBSERVATION TYPE: inhibition at 10 µM (%)
Number only, in %; omit the unit.

COMPOUND: O=C1CC(=O)c2cc(-c3ccc4c(c3)C(=O)CC4=O)ccc21 [Example 75]
REPORTED VALUE: 85
//
COMPOUND: O=C(c1ccc2c(c1)C(=O)C(C(=O)NCc1ccccc1)C2=O)c1ccc2c(c1)C(=O)C(C(=O)NCc1ccccc1)C2=O (stereo not shown) [Example 25]
REPORTED VALUE: 70
//
COMPOUND: COC(=O)CCCC(=O)C1C(=O)c2ccc(C(=O)c3ccc4c(c3)C(=O)C(C(=O)CCCC(=O)OC)C4=O)cc2C1=O (stereo not shown) [Example 225]
REPORTED VALUE: 90

Now for a further compound.
Q: Please report the recorded inhibition at 10 µM for O=C(CC1CC1)C1C(=O)c2ccc(S(=O)(=O)c3ccc4c(c3)C(=O)C(C(=O)CC3CC3)C4=O)cc2C1=O (stereo not shown) [Example 149] .
Ans: 53

###

Molecular target: human PF4 (Homo sapiens)
Construct: PF4 is a 70 amino acid, lysine-rich 7.8 kDa platelet-specific protein; made in house; host or cells: Escherichia coli BL21DE3 pLysS (pT7-7) and/or Drosophila S2 cells
Experiment: Inhibition of PF4 tetramer formation (BS3 cross-linking, SDS-PAGE)
Format: biochemical
Settings: 5 μM inhibitor; read-out: % inhibition of PF4 tetramer formation at single concentration of inhibitor
// reported inhibition at 5 µM per item
Number only, in %; omit the unit.

Previously resolved entries follow.
COMPOUND: CC(C)(C)OC(=O)N1CCC[C@H]1C(=O)C1C(=O)c2ccc(-c3ccc4c(c3)C(=O)C(C(=O)[C@@H]3CCCN3C(=O)OC(C)(C)C)C4=O)cc2C1=O (stereo partly drawn)
OBSERVATION TYPE: inhibition at 5 µM
REPORTED VALUE: 75
--
COMPOUND: Cc1ccc(NC(=O)C2C(=O)c3ccc(C(=O)c4ccc5c(c4)C(=O)C(C(=O)Nc4ccc(C)cc4)C5=O)cc3C2=O)cc1 (stereo not drawn)
OBSERVATION TYPE: inhibition at 5 µM
REPORTED VALUE: 20

Now for a further compound.
Q: Please report the recorded inhibition at 5 µM for C[C@H]1C[C@@H](C(=O)C2C(=O)c3ccc(S(=O)(=O)c4ccc5c(c4)C(=O)C(C(=O)[C@@H]4C[C@H](C)CN4C(=O)OC(C)(C)C)C5=O)cc3C2=O)N(C(=O)OC(C)(C)C)C1 (stereo partly drawn) .
Ans: 100
